- test protocol: Clearance in cancer patient at 10 mg for 60 mins treated 2/1 cycle/day
- Type: ADME, organism-based
- Set-up: dosed compound name LY2090314
- particulars: human, in vivo
measured metric: clearance (mL/min)
Answer format: numeric, mL/min implied, no suffix.

query: Item "O=C1NC(=O)C(c2cnc3ccccn23)=C1c1cn2c3c(cc(F)cc13)CN(C(=O)N1CCCCC1)CC2" has what recorded clearance?
result: 870

###

- test protocol: Tmax in cancer patient at 10 mg for 60 mins treated 1/1 cycle/day
- Format: ADME, organism-based
- Set-up: dosed compound name LY2090314
- particulars: human, in vivo
measured metric: Tmax (min)
Answer format: numeric, min implied, no suffix.

query: Item "O=C1NC(=O)C(c2cnc3ccccn23)=C1c1cn2c3c(cc(F)cc13)CN(C(=O)N1CCCCC1)CC2" has what recorded Tmax?
result: 57

###

- test protocol: AUC (0 to infinity) in cancer patient at 60 mg for 60 mins treated 1/1 cycle/day
- Format: ADME, organism-based
- Design: dose 60 mg, time infinity, dosed compound name LY2090314
- particulars: human, plasma
measured metric: AUC(0-inf) (ng·h/mL)
Answer format: numeric, ng·h/mL implied, no suffix.

query: Item "O=C1NC(=O)C(c2cnc3ccccn23)=C1c1cn2c3c(cc(F)cc13)CN(C(=O)N1CCCCC1)CC2" has what recorded AUC(0-inf)?
result: 1600

###

- test protocol: Tmax in cancer patient at 20 mg for 60 mins treated 2/1 cycle/day
- Assay type: ADME, organism-based
- Set-up: dosed compound name LY2090314
- particulars: human, in vivo
measured metric: Tmax (min)
Answer format: numeric, min implied, no suffix.

query: Item O=C1NC(=O)C(c2cnc3ccccn23)=C1c1cn2c3c(cc(F)cc13)CN(C(=O)N1CCCCC1)CC2 [LY-2090314] has what recorded Tmax?
result: 45

###

- test protocol: AUC (0 to infinity) in beagle dog at 5 mg/kg, iv administered for 30 mins
- Format: ADME, organism-based, Canis lupus familiaris
- Parameters: time infinity, dose 5 mg/kg, dosed compound name [14C]LY2090314, route intravenous
- particulars: plasma
measured metric: AUC(0-inf) (ng·h/mL)
Answer format: numeric, ng·h/mL implied, no suffix.

query: Item "O=C1NC(=O)C(c2cnc3ccccn23)=C1c1cn2c3c(cc(F)cc13)CN(C(=O)N1CCCCC1)CC2" has what recorded AUC(0-inf)?
result: 3230

###

- test protocol: Volume of distribution at steady state in cancer patient at 60 mg for 60 mins treated 1/1 cycle/day
- Assay type: ADME, organism-based
- Design: dosed compound name LY2090314
- particulars: human, in vivo, read-out: Vdss
measured metric: Vd
Answer with the figure and its unit, nothing else.

query: Item O=C1NC(=O)C(c2cnc3ccccn23)=C1c1cn2c3c(cc(F)cc13)CN(C(=O)N1CCCCC1)CC2 [LY-2090314] has what recorded Vd?
result: 76.8 L

###

- test protocol: Half life in cancer patient at 120 mg for 60 mins treated 1/8 cycle/day
- Format: ADME, organism-based
- Set-up: dosed compound name LY2090314
- particulars: human, in vivo
measured metric: half-life (h)
Answer format: numeric, h implied, no suffix.

query: Item O=C1NC(=O)C(c2cnc3ccccn23)=C1c1cn2c3c(cc(F)cc13)CN(C(=O)N1CCCCC1)CC2 [LY-2090314] has what recorded half-life?
result: 3.05

###

- test protocol: Cmax in cancer patient at 40 mg for 60 mins treated 1/8 cycle/day
- Assay type: ADME, organism-based
- Design: dose 40 mg, dosed compound name LY2090314
- particulars: human, in vivo
measured metric: Cmax (ng/mL)
Answer format: numeric, ng/mL implied, no suffix.

query: Item "O=C1NC(=O)C(c2cnc3ccccn23)=C1c1cn2c3c(cc(F)cc13)CN(C(=O)N1CCCCC1)CC2" has what recorded Cmax?
result: 657

###

- test protocol: Clearance in cancer patient at 80 mg for 60 mins treated 1/8 cycle/day
- Format: ADME, organism-based
- Design: dosed compound name LY2090314
- particulars: human, in vivo
measured metric: clearance

query: Item O=C1NC(=O)C(c2cnc3ccccn23)=C1c1cn2c3c(cc(F)cc13)CN(C(=O)N1CCCCC1)CC2 [LY-2090314] has what recorded clearance?
result: 765 mL/min

###

- test protocol: Volume of distribution at steady state in cancer patient at 10 mg for 60 mins treated 1/1 cycle/day
- Type: ADME, organism-based
- Design: dosed compound name LY2090314
- particulars: human, in vivo, read-out: Vdss
measured metric: Vd
Answer with the figure and its unit, nothing else.

query: Item "O=C1NC(=O)C(c2cnc3ccccn23)=C1c1cn2c3c(cc(F)cc13)CN(C(=O)N1CCCCC1)CC2" has what recorded Vd?
result: 89.7 L

###

- test protocol: Tmax in cancer patient at 20 mg for 60 mins treated 1/1 cycle/day
- Type: ADME, organism-based
- Design: dosed compound name LY2090314
- particulars: human, in vivo
measured metric: Tmax (min)
Answer format: numeric, min implied, no suffix.

query: Item O=C1NC(=O)C(c2cnc3ccccn23)=C1c1cn2c3c(cc(F)cc13)CN(C(=O)N1CCCCC1)CC2 [LY-2090314] has what recorded Tmax?
result: 58.8

###

- test protocol: Elimination half life in Sprague-Dawley rat at 5 mg/kg, iv administered for 30 mins
- Format: ADME, organism-based
- Set-up: dose 5 mg/kg, dosed compound name [14C]LY2090314, route intravenous
- particulars: in vivo, read-out: beta t1/2 (converted)
measured metric: half-life
Answer with the figure and its unit, nothing else.

query: Item "O=C1NC(=O)C(c2cnc3ccccn23)=C1c1cn2c3c(cc(F)cc13)CN(C(=O)N1CCCCC1)CC2" has what recorded half-life?
result: 21.5 min

###

- test protocol: Clearance in cancer patient at 120 mg for 60 mins treated 1/1 cycle/day
- Type: ADME, organism-based
- Design: dosed compound name LY2090314
- particulars: human, in vivo
measured metric: clearance (mL/min)
Answer format: numeric, mL/min implied, no suffix.

query: Item "O=C1NC(=O)C(c2cnc3ccccn23)=C1c1cn2c3c(cc(F)cc13)CN(C(=O)N1CCCCC1)CC2" has what recorded clearance?
result: 605

###

- test protocol: Tmax in cancer patient at 80 mg for 60 mins treated 1/1 cycle/day
- Assay type: ADME, organism-based
- Set-up: dosed compound name LY2090314
- particulars: human, in vivo
measured metric: Tmax (h)
Answer format: numeric, h implied, no suffix.

query: Item "O=C1NC(=O)C(c2cnc3ccccn23)=C1c1cn2c3c(cc(F)cc13)CN(C(=O)N1CCCCC1)CC2" has what recorded Tmax?
result: 1

###

- test protocol: AUC (0 to infinity) in cancer patient at 120 mg for 60 mins treated 1/1 cycle/day
- Assay type: ADME, organism-based
- Parameters: dose 120 mg, time infinity, dosed compound name LY2090314
- particulars: human, plasma
measured metric: AUC(0-inf) (ng·h/mL)
Answer format: numeric, ng·h/mL implied, no suffix.

query: Item O=C1NC(=O)C(c2cnc3ccccn23)=C1c1cn2c3c(cc(F)cc13)CN(C(=O)N1CCCCC1)CC2 [LY-2090314] has what recorded AUC(0-inf)?
result: 3310

###

- test protocol: Tmax in beagle dog at 5 mg/kg, iv administered for 30 mins
- Type: ADME, organism-based, Canis lupus familiaris
- Set-up: dose 5 mg/kg, dosed compound name [14C]LY2090314, route intravenous
- particulars: in vivo
measured metric: Tmax (min)
Answer format: numeric, min implied, no suffix.

query: Item "O=C1NC(=O)C(c2cnc3ccccn23)=C1c1cn2c3c(cc(F)cc13)CN(C(=O)N1CCCCC1)CC2" has what recorded Tmax?
result: 30

###

- test protocol: Volume of distribution at steady state in cancer patient at 10 mg for 60 mins treated 2/1 cycle/day
- Type: ADME, organism-based
- Design: dosed compound name LY2090314
- particulars: human, in vivo, read-out: Vdss
measured metric: Vd (L)
Answer format: numeric, L implied, no suffix.

query: Item "O=C1NC(=O)C(c2cnc3ccccn23)=C1c1cn2c3c(cc(F)cc13)CN(C(=O)N1CCCCC1)CC2" has what recorded Vd?
result: 101

###

- test protocol: Cmax in cancer patient at 60 mg for 60 mins treated 1/8 cycle/day
- Assay type: ADME, organism-based
- Parameters: dose 60 mg, dosed compound name LY2090314
- particulars: human, in vivo
measured metric: Cmax
Answer with the figure and its unit, nothing else.

query: Item "O=C1NC(=O)C(c2cnc3ccccn23)=C1c1cn2c3c(cc(F)cc13)CN(C(=O)N1CCCCC1)CC2" has what recorded Cmax?
result: 1040 ng/mL

###

- test protocol: Cmax in cancer patient at 60 mg for 60 mins treated 1/1 cycle/day
- Assay type: ADME, organism-based
- Design: dose 60 mg, dosed compound name LY2090314
- particulars: human, in vivo
measured metric: Cmax (ng/mL)
Answer format: numeric, ng/mL implied, no suffix.

query: Item "O=C1NC(=O)C(c2cnc3ccccn23)=C1c1cn2c3c(cc(F)cc13)CN(C(=O)N1CCCCC1)CC2" has what recorded Cmax?
result: 881
